system: HIV-1; test: Cytopathic Effect (CPE) Inhibition Assay (XTT dye reduction); type: cell-based; details: Human immunodeficiency virus 1, 144 h, read-out: Ave CPE EC50 (mM)
RESULT_TYPE: log10(EC50) (log10 of the value in nM)
Note the log scale: values are log10 of EC50 expressed in nM.

Below, each entry is followed by its recorded log10(EC50) result.
| COMPOUND | log10(EC50) |
| --- | --- |
| Cc1noc(C)c1C(=O)N[C@@H](Cc1ccccc1)[C@H](O)C(=O)N1CSC(C)(C)[C@H]1C(=O)NCc1ccccc1Cl [Example B23] | 3.15 |
| CC(=O)Nc1cccc(CNC(=O)[C@H]2N(C(=O)[C@@H](O)[C@H](Cc3ccccc3)NC(=O)c3cccc(O)c3C)CSC2(C)C)c1 [Example A33] | 2.76 |
| Cn1cccc1C(=O)N[C@@H](Cc1ccccc1)[C@H](O)C(=O)N1CSC(C)(C)[C@H]1C(=O)NCc1ccccc1Cl [Example B22] | 3.21 |
| CCCNC(=O)[C@H]1N(C(=O)[C@@H](O)[C@H](Cc2ccccc2)NC(=O)c2cccc(F)c2C)CSC1(C)C [Example B31] | 3.12 |

Each compound below has a recorded value; state its log10(EC50).
1. Cc1ccccc1CNC(=O)[C@H]1N(C(=O)[C@@H](O)[C@H](Cc2ccccc2)NC(=O)c2ccno2)CSC1(C)C [Example B2]
2. C=CCN(C)C(=O)[C@H]1N(C(=O)[C@@H](O)[C@H](Cc2ccccc2)NC(=O)c2cccc(O)c2C)CSC1(C)C [Example A23]

2.57
1.86

* * *

Would you kindly list Ki for each of these compounds?
target: HIV-1 protease (Q7S) (Human immunodeficiency virus type 1 group M subtype B, UniProt P04585, Q495S); construct: made in house; assay: HIV-1 Protease RET Assay; assay type: biochemical; conditions: Ave. Ki (nM), RET assay, Q7S enzyme, pH 4.8, 37 C
Answers are plain numbers, in nM.

Would you please look over these solved cases?
| SMILES_STR | READING_UNIT | Ki |
| --- | --- | --- |
| Cc1c(O)cccc1C(=O)N[C@@H](Cc1ccccc1)[C@H](O)C(=O)N1CSC(C)(C)[C@H]1C(=O)NCc1ccc(N)cc1 | nM | 0.63 |
| CCCNC(=O)[C@H]1N(C(=O)[C@@H](O)[C@H](Cc2ccccc2)NC(=O)c2cccc(O)c2C)COC1(C)C | nM | 7.9 |

Would you kindly look at the next entry?
So for "C=CCN(C)C(=O)[C@H]1N(C(=O)[C@@H](O)[C@H](Cc2ccccc2)NC(=O)c2cccc(O)c2C)CSC1(C)C" , the logged Ki turned out to be 0.65

* * *

system: HIV-1; test: Cytopathic Effect (CPE) Inhibition Assay (XTT dye reduction); format: cell-based; details: Human immunodeficiency virus 1
What pEC50 was measured for each of the following?
One number for each entry, as −log10 of the molar value.

| SMILES_STR | TARGET_UNDER_TEST | pEC50 |
| --- | --- | --- |
| Cc1cc(C(=O)N[C@@H](Cc2ccccc2)[C@H](O)C(=O)N2CSC(C)(C)[C@H]2C(=O)NCc2ccccc2C)n[nH]1 | HIV-1 | 5.52 |

Items follow; give pEC50 for each.
1. COc1cccc(CNC(=O)[C@H]2N(C(=O)[C@@H](O)[C@H](Cc3ccccc3)NC(=O)c3ccc(C)c(O)c3C)CSC2(C)C)c1
2. Cc1c(O)cccc1C(=O)N[C@@H](Cc1ccccc1)[C@H](O)C(=O)N1CSC(C)(C)[C@H]1C(=O)NCc1cc(F)c(F)cc1F

5.88
6.54
